molecular target: Carbonic anhydrase 2 (Homo sapiens); assay: CAII small-molecule binders, profiling panel, biochemical, small-molecule microarray, Alexa647-labelled CAII (AID 1122); details: CAII-A647 binding fluorescence, higher = more signal
reported metric: composite z-score

* CN1C(=O)C2C=CC(C(O)c3ccc(I)cc3)N(N3CCCCC3)C2C1=O (stereo not given) | 0.608

Asked: Look at this compound and give its reported composite z-score. `COC(=O)[C@@]1(Cc2ccccc2)[C@H]2c3cc(C(=O)N4CCCC4)n(Cc4nc5ccccc5[nH]4)c3C[C@H]2CN1C(=O)c1ccccc1`
Given back: 0.653

Asked: Look at this compound and give its reported composite z-score. `CC(C)N1C(=O)c2ccccc2[C@](C)(C(=O)NCc2ccccc2)[C@@H]1c1ccc(CO)cc1`
Given back: 0.703

Asked: Look at this compound and give its reported composite z-score. `CCCC#C[Si](O[C@H](CC)c1cn([C@H](CO)Cc2ccccc2)nn1)(C(C)C)C(C)C`
Given back: 0.667

Asked: Look at this compound and give its reported composite z-score. `O=C1c2ccccc2[C@](Cc2ccccc2I)(C(=O)NC2CC2)[C@H](c2ccc(CO)cc2)N1C1CCCCC1`
Given back: 0.636
